Biological target: T1, human CD127 (IL-7Rα) expressed on cells (CD127-transfected CHO cells); PBMC / CD4+ T cells in functional … (human, UniProt P16871 21-459)
T1 chain: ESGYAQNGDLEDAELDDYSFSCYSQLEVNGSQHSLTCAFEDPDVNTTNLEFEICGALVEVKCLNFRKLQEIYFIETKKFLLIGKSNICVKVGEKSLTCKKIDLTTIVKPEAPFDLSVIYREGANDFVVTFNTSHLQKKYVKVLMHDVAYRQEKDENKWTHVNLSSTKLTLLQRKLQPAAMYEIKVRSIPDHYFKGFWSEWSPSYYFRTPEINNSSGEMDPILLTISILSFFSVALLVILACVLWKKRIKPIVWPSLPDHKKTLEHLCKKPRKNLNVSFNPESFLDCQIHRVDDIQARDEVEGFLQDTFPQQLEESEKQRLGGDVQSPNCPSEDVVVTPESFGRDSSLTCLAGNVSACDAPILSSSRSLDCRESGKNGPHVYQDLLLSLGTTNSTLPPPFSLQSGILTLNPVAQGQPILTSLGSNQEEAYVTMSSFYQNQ
Test: cell-based or functional assay
Here the recorded IC50 of inhibition of pSTAT5 signalling is given for each entry.
Number in µg/ml, nothing else.

For this binder ( mAb GR34 (reverse engineered clone of R34.34) (antibody, mouse IgG1, V domains shown, also called antibody GR34) VH: EVQLQQSGPELVKPGASMKISCKASGYSFTGYTMNWVKQSHGKNLEWIGLINPYSGITSYNQNFKGKATLTVDKSSSTAYMELLNLTSEDSAVYYCARGDGNYWYFDVWGAGTTVTVSS VL: EIILTQSPAITAASLGQKVTITCSASSSVSYMHWYQQKSGTSPKPWIYEISKLASGVPARFSGSGSGTSYSLTISSMEAEDAAIYYCQYWNYPYTFGGGTKLEIK ), measured IC50 of inhibition of pSTAT5 signalling is 0.22

IC50 of inhibition of pSTAT5 signalling reading for mAb 6C5 (murine anti-human CD127 monoclonal antibody) (antibody, mouse IgG1, V domains shown, also called antibody 6C5) VH: EVKLLESGGGLVQPGGSLKLSCAASGFAFSAYWMSWVRQAPGKGLEWIGEINPDSSTINCTPSLKDKFIISRDNAKNTLSLQMNKVRSEDTALYYCARRLRPFWYFDVWGAGTTVTVSS VL: DVLMTQTPLSLPVSLGDQASISCRSSQSIVQSNGNTYLEWYLQKPGQSPKLLIYKVSNRFSGVPDRFSGSGSGTDFTLKISRVEAEDLGVYYCFQGSHVPRTFGGGTKLEIK : 50

The reported value for mAb 6A3 (murine anti-human CD127 monoclonal antibody) (antibody, mouse IgG1, V domains shown, also called antibody 6A3) VH: DVQLQESGPGLVKPSQSLSLTCTVTGYSITTDYAWNWIRQFPGNKLEWMGYIFYSGSTTYTPSLKSRISITRDTSKNQFFLQLNSVTTEDTATYYCARGGYDVNYFDYWGQGTTLTVSS VL: DIQMTQSPASQSASLGESVTITCLASQTIGAWLAWYQQKPGKSPQLLIYAATRLADGVPSRFSGSGSGTKFSFKISSLQAEDFVSYYCQQFFSTPWTFGGGTKLEIK in terms of IC50 of inhibition of pSTAT5 signalling is 0.099
